Where do the numbers come from? From ChEMBL document CHEMBL1201862.

tested on: MCF7; assay: NCI tumour cell line growth inhibition, 48 h
Calls of active or inactive are those of the source. Cut-off read from the data, not from the text of the source: active = GI50 up to about 1.1 µM and inactive = higher.
measured_parameter: GI50

For record O=[N+]([O-])c1ccc(Cl)c2c([N+](=O)[O-])cccc12 the listed GI50 is 4.43 µM (inactive)

According to the records, this compound COc1ccc(/C=N/CCC/N=C/c2ccc(OC)cc2O)c(O)c1 displays GI50 of 55.7 µM (inactive)

Kindly note the recorded GI50 for C=CCn1c2ccccc2c2c(C)c3cnccc3c(C)c21 , which is 5.52 µM (inactive)

Noted for CC1(C)CC(=O)C(CC(C(=O)C(=O)Nc2cc(C(F)(F)F)ccc2Cl)C(=O)c2ccco2)C(=O)C1 (stereo not given) : its GI50 reads > 100 µM (inactive)

Form field GI50, entry CC1=C(C)SC(=C2Sc3c(n(C)c(=O)n(C)c3=O)S2)S1 : > 100 µM (inactive)

get_value(item= COC(=O)CCC(NC(=O)C(C)NC(=O)COC1C(O)C(OC(=O)CCNc2c3ccccc3nc3cccc([N+](=O)[O-])c23)OC(OCc2ccccc2)C1NC(C)=O)C(N)=O (stereo not given) , readout=GI50) returns 2.28 µM (inactive)

Record summary for CC1(C)CC(=O)C(=CNC(N)=S)C(=O)C1 : reported GI50 = > 100 µM (inactive)

GI50 reported for this compound [N-]=[N+]=NCC1OCC(O)C(OCc2ccccc2)C1OCc1ccccc1 (stereo not given) : > 100 µM (inactive)

The value of GI50 measured for the compound C=CCCCC1(C)CCCCNC1=O (stereo not given) turned out to be > 10 µM (inactive)

Kindly note the recorded GI50 for CCOC(=O)NC(=S)c1ccc(O)c2ccccc12 , which is 72.1 µM (inactive)
